Where these numbers come from: the Immune Epitope Database (IEDB)

Molecular target: HLA-B*40:02
Experiment: IEDB peptide-MHC binding, purified MHC/competitive/radioactivity; filed as Kd, often an IC50 or EC50 that approximates it; bounds were set here for any values at or beyond the usual limits of such assays
Details: source organism: Mammarenavirus guanaritoense
measured.attribute: Kd (µM)
Report as a plain number; the unit µM is understood.

What value of measured Kd is listed for `GEKSRCYSL` ?
0.0147

Queued: `LENAQPGLL`
0.182

====

Target: HLA-B*58:01
Assay: IEDB peptide-MHC binding, purified MHC/direct/fluorescence; filed as Kd, often an IC50 or EC50 that approximates it; bounds were set here for any values at or beyond the usual limits of such assays
Settings: source organism: Salmonella enterica subsp. enterica serovar Typhimurium
measured.attribute: Kd (µM)
Report as a plain number; the unit µM is understood.

Please tell me: Kd of `GVNACQVGV` , system HLA-B*58:01?
0.392
